# PROTOCOL_DESCRIPTION: in vivo
# MEASUREMENT_PARAMETERS: male, Wistar, rat, in vivo, iv
ATTRIBUTE_MEASURED: LD50 at 2 weeks (mg/kg)

COc1cccc2c1C(=O)c1c(O)c3c(c(O)c1C2=O)C[C@@](O)(C(=O)CO)C[C@@H]3O[C@H]1C[C@H](N)[C@H](O)[C@H](C)O1 [Doxorubicin, reference compound] ... 3.75
